- MEASUREMENT_TARGET: Acetylcholinesterase (Homo sapiens)
- ASSAY_PROTOCOL: Acetylcholinesterase (AChE) small molecule antagonists: enzyme-based qHTS assay (AID 1347397); further: nearly all actives have a fitted effect of over 55% in size
- CONDITION_CONTEXT: AChE enzyme activity inhibition; series mostly up to 115 µM
Active and inactive are the calls of the source. The call rests on the fitted dose curve.
MEASUREMENT_KIND: outcome

# count of solved cases: 5
[[record]]
compound = "Nc1ccc2c(O)cc(S(=O)(=O)O)cc2c1"
measurement_target = "Acetylcholinesterase (Homo sapiens)"
value_observed = "inactive"

[[record]]
compound = "Cc1c(Nc2ncccc2C(=O)O)cccc1C(F)(F)F"
measurement_target = "Acetylcholinesterase (Homo sapiens)"
value_observed = "inactive"

[[record]]
compound = "OC[C@H]1O[C@@H]2O[C@H]3[C@H](O)[C@@H](O)[C@@H](O[C@H]4[C@H](O)[C@@H](O)[C@@H](O[C@H]5[C@H](O)[C@@H](O)[C@@H](O[C@H]6[C@H](O)[C@@H](O)[C@@H](O[C@H]7[C@H](O)[C@@H](O)[C@@H](O[C@H]1[C@H](O)[C@H]2O)O[C@@H]7CO)O[C@@H]6CO)O[C@@H]5CO)O[C@@H]4CO)O[C@@H]3CO"
measurement_target = "Acetylcholinesterase (Homo sapiens)"
value_observed = "inactive"

[[record]]
compound = "CC1=CC2C3CC(C=C3C)C2C1 (stereo not given)"
measurement_target = "Acetylcholinesterase (Homo sapiens)"
value_observed = "inactive"

[[record]]
compound = "Oc1ccc(Cc2ccccc2O)cc1"
measurement_target = "Acetylcholinesterase (Homo sapiens)"
value_observed = "inactive"


Give one value of outcome per listed compound.
1. O=C(Cn1ccnc1[N+](=O)[O-])NCc1ccccc1
2. CC1=C(O)C(=O)CO1
3. Cc1ccc(N=Nc2c(O)c(C(=O)O)cc3ccccc23)c(S(=O)(=O)O)c1

["inactive", "inactive", "inactive"]

Give one value of outcome per listed compound.
1. CCCCC(CC)COCCCN (stereo not given)
2. CC(=O)C(=O)O

1. inactive
2. inactive

---

- MEASUREMENT_TARGET: Androgen receptor (Homo sapiens)
- ASSAY_PROTOCOL: qHTS assay to identify small molecule agonists of the androgen receptor (AR) signaling pathway using the MDA cell line (AID 743040; further: nearly all actives have a fitted effect of over 20% in size)
- CONDITION_CONTEXT: MDA-kb2 AR-luc cells, MMTV luciferase, 16 h; series mostly up to 70.3 µM
Calls of active or inactive are those of the source. Calls follow the shape of the dose curve; as a rule, active = well fitted activation curve with a large enough effect in the repeat runs; inconclusive = weak or mixed curves; inactive = flat fitted curve, though single readings scatter.
Bench note: report the call from class 1 = active, class 0 = inactive

[[record]]
molecule = "C[C@]12C[C@H]3S[C@H]3C[C@@H]1CC[C@@H]1[C@@H]2CC[C@]2(C)[C@@H](O)CC[C@@H]12"
measurement_target = "Androgen receptor (Homo sapiens)"
class_label = "class 1"


Check the results log: what was the call for CCC(=O)O[C@]1(c2ccccc2)CCN(C)C[C@H]1C ?
class 0

Check the results log: what was the call for Cc1ccccc1-n1c(CF)nc2ccc(N)cc2c1=O ?
class 1

Check the results log: what was the call for O=[N+]([O-])c1cc(I)c(O)c(I)c1 ?
class 0

Check the results log: what was the call for C[C@@H]1[C@@H]2Cc3ccc(O)cc3[C@@]1(C)CCN2CC1CC1 ?
class 0

Check the results log: what was the call for COC(=O)[C@@H]1[C@H]2CC[C@@H](C[C@H]1OC(=O)c1ccccc1)N2C ?
class 0

Check the results log: what was the call for Nc1ccc([N+](=O)[O-])cc1 ?
class 0

Check the results log: what was the call for C[C@]12CC[C@H]3[C@@H](CCC4=C(Cl)C(=O)CC[C@@]43C)[C@@H]1CC[C@@H]2O ?
class 1

Check the results log: what was the call for O=C(O)CCCO ?
class 0

Check the results log: what was the call for CCCCCN(C)CCC(O)(P(=O)(O)O)P(=O)(O)O ?
class 0

Check the results log: what was the call for CC(C)CCC(=O)O[C@H]1CC[C@H]2[C@@H]3CCC4=CC(=O)CC[C@]4(C)[C@H]3CC[C@]12C ?
class 1

Check the results log: what was the call for CN1CC[C@@]23CCCC[C@@H]2[C@@H]1Cc1ccc(O)cc13 ?
class 1

Check the results log: what was the call for CO/C=C(/C(=O)OC)c1ccccc1Oc1cc(Oc2ccccc2C#N)ncn1 ?
class 0

Check the results log: what was the call for c1cc2c(c(NC3=NCCN3)c1)CCCC2 ?
class 0

Check the results log: what was the call for NCC(O)c1cccc(O)c1 (stereo not given) ?
class 0
